Assayed target: Cathepsin K (Homo sapiens)
Sequence (P43235 115-329): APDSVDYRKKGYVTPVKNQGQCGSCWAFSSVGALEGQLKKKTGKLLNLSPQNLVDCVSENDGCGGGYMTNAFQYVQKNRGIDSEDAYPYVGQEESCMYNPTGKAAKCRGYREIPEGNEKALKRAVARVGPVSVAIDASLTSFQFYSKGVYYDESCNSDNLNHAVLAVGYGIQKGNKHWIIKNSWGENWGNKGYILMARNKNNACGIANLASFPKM
Experimental protocol: Cathepsin K inhibition assay (fluorogenic peptide substrate); selectivity ratio vs cathepsin S
Format: biochemical
Run conditions: ratio of cathepsin K inhibition constant to cathepsin S inhibition constant; Table II
Experimental endpoint: Selectivity for Cat. S over Cat. K

COc1ccc(NCCNC(=O)[C@H](CCC2CCCCC2)NC(=O)c2cc3cc(F)ccc3[nH]2)cc1    ++ (++, >100)
O=C(N[C@@H](CC1CCCCC1)C(=O)NCCNc1ccc(OC(F)(F)F)cc1)c1ccc(-c2ccc(C(F)(F)F)cc2)s1    ++ (++, >100)
COc1ccc(NCCNC(=O)[C@H](Cc2ccccc2)NC(=O)c2cc(C)c(OCc3ccccc3)c(C)c2)cc1    ++ (++, >100)
COc1ccc(NCCNC(=O)[C@H](CC2CCCCC2)NC(=O)c2cc3cc(F)ccc3[nH]2)cc1    + (+, >10)

## Input Would you mind telling me what Selectivity for Cat. S over Cat. K value was observed for COc1ccc(CC(=O)NC(CC2CCCCC2)C(=O)NCCNc2ccc(OC(F)(F)F)cc2)cc1 (stereo not drawn) ?
## Output ++ (++, >100)

## Input Would you mind telling me what Selectivity for Cat. S over Cat. K value was observed for COc1ccc(NCCNC(=O)[C@H](Cc2ccc(C#N)cc2)NC(=O)c2cccc(C)c2)cc1 ?
## Output +++ (+++, >1000)

## Input Would you mind telling me what Selectivity for Cat. S over Cat. K value was observed for O=C(Cc1ccccc1)N[C@@H](CC1CCCCC1)C(=O)NCCNc1ccc(F)cc1 ?
## Output ++ (++, >100)

## Input Would you mind telling me what Selectivity for Cat. S over Cat. K value was observed for O=C(Cc1ccc(F)cc1)N[C@@H](CC1CCCCC1)C(=O)NCCNc1ccc(F)cc1 ?
## Output ++ (++, >100)

## Input Would you mind telling me what Selectivity for Cat. S over Cat. K value was observed for O=C(N[C@@H](CC1CCCCC1)C(=O)NCCNc1ccc(OC(F)(F)F)cc1)c1ccc(-c2cccc(OC(F)(F)F)c2)s1 ?
## Output +++ (+++, >1000)

---

Assayed target: Cathepsin K (Homo sapiens)
Sequence (P43235 115-329): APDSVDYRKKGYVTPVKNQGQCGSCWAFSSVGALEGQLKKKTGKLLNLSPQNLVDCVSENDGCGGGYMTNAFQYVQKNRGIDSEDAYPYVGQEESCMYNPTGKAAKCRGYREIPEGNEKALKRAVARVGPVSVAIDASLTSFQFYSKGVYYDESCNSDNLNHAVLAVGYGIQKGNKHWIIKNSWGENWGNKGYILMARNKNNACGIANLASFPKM
Experimental protocol: Cathepsin K inhibition assay (fluorogenic peptide substrate); selectivity ratio vs cathepsin S
Assay type: biochemical
Run conditions: ratio of cathepsin K inhibition constant to cathepsin S inhibition constant; Table II
Experimental endpoint: Selectivity for Cat. S over Cat. K

CS(=O)(=O)c1ccc(CC(=O)N[C@@H](CC2CCCCC2)C(=O)NCCNc2ccc(F)cc2)cc1    ++ (++, >100)
COc1ccc(NCCNC(=O)[C@H](CC2CCCCC2)NC(=O)c2cccc(-c3csc(C)n3)c2)cc1    ++ (++, >100)
O=C(N[C@@H](CC1CCCCC1)C(=O)NCCNc1ccc(OC(F)(F)F)cc1)C1CC(=O)N(Cc2cccs2)C1 (stereo partly shown)    ++ (++, >100)

---

Ki reference
Assayed target: UniProt P25774
Experimental protocol: Cathepsin S inhibition assay (fluorogenic peptide substrate)
Format: biochemical
Run conditions: Table II, compounds of Formula I; read-out: Ki Cat. S

COc1ccc(NCCNC(=O)[C@H](CCC2CCCCC2)NC(=O)c2cc3cc(Cl)ccc3[nH]2)cc1    < 10 µM
O=C(N[C@@H](CC1CCCCC1)C(=O)NCCNc1ccc(OC(F)(F)F)cc1)c1ccc(-c2ccc(C(F)(F)F)cc2)s1    < 0.1 µM
COc1ccc(NCCNC(=O)[C@H](CC2CCCCC2)NC(=O)c2ccc(-c3ccc(Cl)cc3)cc2)cc1    < 10 µM
COc1ccc(NCCNC(=O)[C@H](Cc2ccc(Oc3cc(C)cc(C)c3)cc2)NC(=O)c2cccc(C)c2)cc1    < 1 µM
COc1ccc(NCCNC(=O)[C@@H](NC(=O)c2cccc(C)c2)C(C)OCc2ccccc2)cc1 (stereo partly drawn)    < 1 µM
COc1ccc(NCCNC(=O)[C@H](Cc2ccc(-c3cccc(OC)c3OC)cc2)NC(=O)c2cccc(C)c2)cc1    < 1 µM
COc1ccc(NCCNC(=O)[C@H](Cc2ccc(-c3ccc(C#N)cc3)cc2)NC(=O)c2cccc(C)c2)cc1    < 0.1 µM
COc1ccc(NCCNC(=O)C(NC(=O)c2cccc(C)c2)C(C)c2ccccc2)cc1 (stereo not drawn) [Compound 269]    < 10 µM

## Input Would you mind telling me what Ki value was observed for COc1ccc(NCCNC(=O)[C@H](CCc2ccccc2)NC(=O)c2ccc(-c3cccc(C(F)(F)F)c3)o2)cc1 ?
## Output < 1 µM

## Input Would you mind telling me what Ki value was observed for COc1ccc(NCCNC(=O)[C@H](Cc2ccc(Oc3ccc(C)cc3)cc2)NC(=O)c2cccc(C)c2)cc1 ?
## Output < 0.1 µM

## Input Would you mind telling me what Ki value was observed for COc1ccc(NCCNC(=O)[C@H](CC2CCCCC2)NC(=O)c2cc(F)ccc2C)cc1 ?
## Output < 0.1 µM

## Input Would you mind telling me what Ki value was observed for O=C(N[C@@H](CC1CCCCC1)C(=O)NCCNc1ccc(F)cc1)c1ccc(-c2cccc(C(F)(F)F)c2)o1 ?
## Output < 0.1 µM

## Input Would you mind telling me what Ki value was observed for COc1ccc(NCCNC(=O)[C@H](Cc2ccc(-c3cccc(C(C)=O)c3)cc2)NC(=O)c2cccc(C)c2)cc1 ?
## Output < 0.1 µM

## Input Would you mind telling me what Ki value was observed for COc1ccc(NCCNC(=O)[C@H](CC2CCCCC2)NC(=O)[C@@H](C)c2ccccc2)cc1 ?
## Output < 0.1 µM

## Input Would you mind telling me what Ki value was observed for O=C(N[C@@H](CC1CCCCC1)C(=O)NCCNc1ccc(OC(F)(F)F)cc1)c1ccc(Cn2cnc3ccccc32)cc1 ?
## Output < 0.1 µM

## Input Would you mind telling me what Ki value was observed for O=C(N[C@@H](CC1CCCCC1)C(=O)NCCNc1ccc(OC(F)(F)F)cc1)c1ccc(-c2cccc(F)c2)o1 ?
## Output < 0.1 µM

## Input Would you mind telling me what Ki value was observed for O=C(NCCNc1ccc(F)cc1)[C@H](CC1CCCCC1)NC(=O)[C@H](O)c1ccccc1 ?
## Output < 0.1 µM

## Input Would you mind telling me what Ki value was observed for O=C(Cc1ccc(OC(F)(F)F)cc1)N[C@@H](CC1CCCCC1)C(=O)NCCNc1ccc(F)cc1 ?
## Output < 0.1 µM

## Input Would you mind telling me what Ki value was observed for COc1ccc(NCCNC(=O)[C@H](CC2CCCCC2)NC(=O)c2cnn(-c3ccc(F)cc3)c2C)cc1 ?
## Output < 0.1 µM

## Input Would you mind telling me what Ki value was observed for O=C(N[C@@H](CC1CCCCC1)C(=O)NCCNc1ccc(OC(F)(F)F)cc1)c1ccc(-c2cccc(OC(F)(F)F)c2)s1 ?
## Output < 0.1 µM

## Input Would you mind telling me what Ki value was observed for COc1ccc(NCCNC(=O)[C@H](CC2CCCCC2)NC(=O)c2cc3cc(F)ccc3[nH]2)cc1 ?
## Output < 0.1 µM

---

Assayed target: Cathepsin S (Homo sapiens)
Sequence (P25774 115-331, species assumed): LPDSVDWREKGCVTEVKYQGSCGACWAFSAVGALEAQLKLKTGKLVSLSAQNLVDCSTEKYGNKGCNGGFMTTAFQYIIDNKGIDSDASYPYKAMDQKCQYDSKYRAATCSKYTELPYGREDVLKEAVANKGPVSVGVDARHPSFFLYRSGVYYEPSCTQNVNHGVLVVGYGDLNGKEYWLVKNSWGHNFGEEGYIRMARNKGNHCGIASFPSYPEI
Experimental protocol: Cathepsin S inhibition assay (fluorogenic peptide substrate)
Assay type: biochemical
Run conditions: Table II, compounds of Formula I; read-out: Ki Cat. S
pKi: −log10 of the molar value.
Experimental endpoint: pKi

Sample records with pKi:
COc1ccc(NCCNC(=O)[C@H](CC2CCCCC2)NC(=O)c2ccccc2F)cc1 [Compound 145]    > 7.00
O=C(Cc1ccsc1)N[C@@H](CC1CCCCC1)C(=O)NCCNc1ccc(F)cc1 [Compound 77]    > 7.00

## Input Would you mind telling me what pKi value was observed for O=C(N[C@@H](CC1CCCCC1)C(=O)NCCNc1ccc(OC(F)(F)F)cc1)c1ccc(-c2cc(C(F)(F)F)ccc2Cl)o1 [Compound 251] ?
## Output > 7.00

## Input Would you mind telling me what pKi value was observed for O=C(Cn1cnnn1)N[C@@H](CC1CCCCC1)C(=O)NCCNc1ccc(F)cc1 [Compound 265] ?
## Output > 6.00

## Input Would you mind telling me what pKi value was observed for COc1ccc(NCCNC(=O)[C@H](Cc2ccc(Oc3cccc(Cl)c3)cc2)NC(=O)c2cccc(C)c2)cc1 [Compound 329] ?
## Output > 6.00

## Input Would you mind telling me what pKi value was observed for O=C(N[C@@H](CC1CCCCC1)C(=O)NCCNc1ccc(OC(F)(F)F)cc1)c1ccc(-c2ccc(C(F)(F)F)cc2)o1 [Compound 213] ?
## Output > 7.00

## Input Would you mind telling me what pKi value was observed for COc1ccc(NCCNC(=O)[C@H](CC2CCCCC2)NC(=O)c2cc(F)cc(C(F)(F)F)c2)cc1 [Compound 165] ?
## Output > 7.00

## Input Would you mind telling me what pKi value was observed for COc1ccc(NCCNC(=O)[C@H](Cc2ccc(F)cc2)NC(=O)c2cccc(C)c2)cc1 [Compound 245] ?
## Output > 7.00

Source listed as patent US7109243B2.
